The reported numbers originate from patent US20230234941A1.

- methodDescription: Solid solubility test (2 h and 24 h)
- Format: physicochemical
- details: Test ES1: 0.1N HCl solution (pH 1.0); state of sample / solid fraction
measuredQuantity: XRPD measured at 2 h

| molecule | measuredResult |
| --- | --- |
| C=CC(=O)Nc1cc(Nc2ncnc(-c3cn(C)c4ccccc34)n2)c(OC)cc1N(C)CCN(C)C [Example 8] | clear solution |
| C=CC(=O)Nc1cc(Nc2ncnc(-c3cn(C)c4ccccc34)n2)c(OC)cc1N(C)CCN(C)C [Example 5] | clear solution |
| C=CC(=O)Nc1cc(Nc2ncnc(-c3cn(C)c4ccccc34)n2)c(OC)cc1N(C)CCN(C)C [Example 9] | clear solution |
| C=CC(=O)Nc1cc(Nc2ncnc(-c3cn(C)c4ccccc34)n2)c(OC)cc1N(C)CCN(C)C [Example 4] | clear solution |
| C=CC(=O)Nc1cc(Nc2ncnc(-c3cn(C)c4ccccc34)n2)c(OC)cc1N(C)CCN(C)C [Example 3] | clear solution |

Fill in XRPD measured at 2 h for each of the 4 molecules listed.
1. C=CC(=O)Nc1cc(Nc2ncnc(-c3cn(C)c4ccccc34)n2)c(OC)cc1N(C)CCN(C)C [Example 1]
2. C=CC(=O)Nc1cc(Nc2ncnc(-c3cn(C)c4ccccc34)n2)c(OC)cc1N(C)CCN(C)C [Example 10]
3. C=CC(=O)Nc1cc(Nc2ncnc(-c3cn(C)c4ccccc34)n2)c(OC)cc1N(C)CCN(C)C [Example 2]
4. C=CC(=O)Nc1cc(Nc2ncnc(-c3cn(C)c4ccccc34)n2)c(OC)cc1N(C)CCN(C)C [Example 6]

1: clear solution; 2: clear solution; 3: clear solution; 4: clear solution

###

- methodDescription: Solid storage stability test
- Format: physicochemical
- details: original solid before storage
measuredQuantity: Original purity (%)
Give bare numbers, in %.

Reference set, count: 3
| molecule | measuredResult |
| --- | --- |
| C=CC(=O)Nc1cc(Nc2ncnc(-c3cn(C)c4ccccc34)n2)c(OC)cc1N(C)CCN(C)C [Example 9] | 99.8 |
| C=CC(=O)Nc1cc(Nc2ncnc(-c3cn(C)c4ccccc34)n2)c(OC)cc1N(C)CCN(C)C [Example 3] | 99.9 |
| C=CC(=O)Nc1cc(Nc2ncnc(-c3cn(C)c4ccccc34)n2)c(OC)cc1N(C)CCN(C)C [Example 5] | 99.9 |

State the recorded Original purity for this entry: C=CC(=O)Nc1cc(Nc2ncnc(-c3cn(C)c4ccccc34)n2)c(OC)cc1N(C)CCN(C)C [Example 6]
99.7

###

- methodDescription: Solid solubility test (2 h and 24 h)
- Format: physicochemical
- details: 0.1N HCl solution, 37 °C, pH 1, simulated gastric fluid, thermodynamic from solid, Test ES1: 0.1N HCl solution (pH 1.0), 37° C., based on free base; read-out: Solubility measured at 2 h
measuredQuantity: solubility at 2 h

State the recorded solubility at 2 h for this entry: `C=CC(=O)Nc1cc(Nc2ncnc(-c3cn(C)c4ccccc34)n2)c(OC)cc1N(C)CCN(C)C`
< 2000 µg/mL

###

- methodDescription: Solid solubility test (2 h and 24 h)
- Assay type: physicochemical
- details: Test ES1: 0.1N HCl solution (pH 1.0)
- Procedure: samples were weighed for each amorphous salt solid (equivalent to 20 mg of free base), and 10 mL of the following solvents were respectively added: 0.1N HCl solution (pH 1.0), 50 mM phosphate buffer (pH 4.5), FeSSIF-V1 (pH 5.0), FaSSIF-V1 (pH 6.5) and SGF (pH 2.0), […] The suspension was then centrifuged at 37° C., the supernatant was measured for solubility by HPLC, and the solid fraction was measured for XRPD. The target solubility was at least 2 mg (based on free base)/mL.
measuredQuantity: pH measured at 2 h

| compound | measuredQuantity | measuredResult |
| --- | --- | --- |
| C=CC(=O)Nc1cc(Nc2ncnc(-c3cn(C)c4ccccc34)n2)c(OC)cc1N(C)CCN(C)C [Example 2] | pH measured at 2 h | (0.7) |
| C=CC(=O)Nc1cc(Nc2ncnc(-c3cn(C)c4ccccc34)n2)c(OC)cc1N(C)CCN(C)C [Example 5] | pH measured at 2 h | (0.7) |
| C=CC(=O)Nc1cc(Nc2ncnc(-c3cn(C)c4ccccc34)n2)c(OC)cc1N(C)CCN(C)C [Example 6] | pH measured at 2 h | (0.7) |
| C=CC(=O)Nc1cc(Nc2ncnc(-c3cn(C)c4ccccc34)n2)c(OC)cc1N(C)CCN(C)C [Example 8] | pH measured at 2 h | (0.8) |
